- target: CSF1R (Homo sapiens)
- Sequence (P07333 20-972): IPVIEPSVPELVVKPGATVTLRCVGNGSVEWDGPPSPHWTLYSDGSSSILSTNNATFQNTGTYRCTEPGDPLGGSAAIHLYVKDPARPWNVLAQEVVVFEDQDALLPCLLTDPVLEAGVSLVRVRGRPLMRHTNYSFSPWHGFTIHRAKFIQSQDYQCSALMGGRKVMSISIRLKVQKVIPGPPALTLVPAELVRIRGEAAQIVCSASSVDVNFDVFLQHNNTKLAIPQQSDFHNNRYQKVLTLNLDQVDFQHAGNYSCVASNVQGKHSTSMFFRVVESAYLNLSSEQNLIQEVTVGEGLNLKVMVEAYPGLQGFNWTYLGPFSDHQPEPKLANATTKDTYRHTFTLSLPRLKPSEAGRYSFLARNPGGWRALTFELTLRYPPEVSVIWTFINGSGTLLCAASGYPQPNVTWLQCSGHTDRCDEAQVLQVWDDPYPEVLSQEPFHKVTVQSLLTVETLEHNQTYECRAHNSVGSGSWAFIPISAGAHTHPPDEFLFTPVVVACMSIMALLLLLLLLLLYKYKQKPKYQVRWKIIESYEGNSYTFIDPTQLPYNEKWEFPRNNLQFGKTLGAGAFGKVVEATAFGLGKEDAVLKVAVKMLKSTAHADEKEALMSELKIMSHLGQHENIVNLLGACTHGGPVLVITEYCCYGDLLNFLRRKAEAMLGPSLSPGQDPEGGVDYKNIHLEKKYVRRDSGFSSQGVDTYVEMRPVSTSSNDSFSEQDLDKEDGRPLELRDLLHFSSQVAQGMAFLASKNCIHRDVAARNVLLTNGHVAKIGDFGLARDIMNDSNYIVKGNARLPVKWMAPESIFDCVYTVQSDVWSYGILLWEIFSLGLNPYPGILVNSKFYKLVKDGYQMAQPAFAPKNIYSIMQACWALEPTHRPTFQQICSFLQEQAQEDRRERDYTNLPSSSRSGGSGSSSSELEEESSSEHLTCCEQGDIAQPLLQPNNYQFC
reported metric: pIC50
Please keep in mind that pIC50 is minus log10 of the molar concentration; only the number is needed.

Recorded pIC50 of COc1cc2nccc(Oc3ccc(NC(=O)C4(C(=O)Nc5ccc(F)cc5)CC4)cc3)c2cc1OC [cabozantinib] , please.
7.85

====

- target: ALK (Homo sapiens)
- Sequence (Q9UM73 19-1620): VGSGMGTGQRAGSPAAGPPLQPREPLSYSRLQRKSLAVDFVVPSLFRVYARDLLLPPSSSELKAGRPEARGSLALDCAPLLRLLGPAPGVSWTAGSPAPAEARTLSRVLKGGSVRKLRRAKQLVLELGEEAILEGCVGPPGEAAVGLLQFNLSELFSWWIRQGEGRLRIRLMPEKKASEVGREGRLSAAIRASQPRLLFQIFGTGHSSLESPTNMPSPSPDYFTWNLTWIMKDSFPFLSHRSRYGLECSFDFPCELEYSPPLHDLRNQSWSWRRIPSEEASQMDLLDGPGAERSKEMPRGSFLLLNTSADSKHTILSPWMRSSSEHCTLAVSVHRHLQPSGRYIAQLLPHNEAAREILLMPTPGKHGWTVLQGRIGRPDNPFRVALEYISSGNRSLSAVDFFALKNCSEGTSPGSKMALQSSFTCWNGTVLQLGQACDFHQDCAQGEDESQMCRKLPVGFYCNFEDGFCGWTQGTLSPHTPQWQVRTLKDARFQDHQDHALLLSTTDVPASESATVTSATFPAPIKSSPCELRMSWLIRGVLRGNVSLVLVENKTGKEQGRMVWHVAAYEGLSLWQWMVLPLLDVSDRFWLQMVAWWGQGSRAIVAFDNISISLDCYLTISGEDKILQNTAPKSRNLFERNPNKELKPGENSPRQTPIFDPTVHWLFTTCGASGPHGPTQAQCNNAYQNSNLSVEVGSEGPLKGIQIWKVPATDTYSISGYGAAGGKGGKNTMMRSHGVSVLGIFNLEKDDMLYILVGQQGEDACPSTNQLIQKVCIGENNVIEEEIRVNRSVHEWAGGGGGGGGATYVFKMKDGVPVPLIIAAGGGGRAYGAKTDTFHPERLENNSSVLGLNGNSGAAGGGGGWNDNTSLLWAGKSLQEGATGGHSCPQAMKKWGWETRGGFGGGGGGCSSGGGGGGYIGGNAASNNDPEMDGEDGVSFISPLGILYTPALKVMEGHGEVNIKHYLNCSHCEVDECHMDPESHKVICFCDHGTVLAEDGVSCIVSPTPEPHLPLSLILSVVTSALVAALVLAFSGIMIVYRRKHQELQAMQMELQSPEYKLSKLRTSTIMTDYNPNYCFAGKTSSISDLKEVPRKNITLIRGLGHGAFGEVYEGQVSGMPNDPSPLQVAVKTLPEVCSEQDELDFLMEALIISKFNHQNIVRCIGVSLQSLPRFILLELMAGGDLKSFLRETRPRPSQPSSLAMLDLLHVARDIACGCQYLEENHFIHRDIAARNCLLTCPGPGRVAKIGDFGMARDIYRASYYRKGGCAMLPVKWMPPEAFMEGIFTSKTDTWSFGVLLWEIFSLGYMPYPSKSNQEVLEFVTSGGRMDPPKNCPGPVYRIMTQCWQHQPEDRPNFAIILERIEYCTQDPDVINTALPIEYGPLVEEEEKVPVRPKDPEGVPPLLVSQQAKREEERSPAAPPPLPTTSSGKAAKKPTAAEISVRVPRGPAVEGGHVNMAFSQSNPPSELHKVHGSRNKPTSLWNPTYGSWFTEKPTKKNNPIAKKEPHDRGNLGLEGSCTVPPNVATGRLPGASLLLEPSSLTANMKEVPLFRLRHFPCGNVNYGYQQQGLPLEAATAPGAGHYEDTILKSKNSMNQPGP
reported metric: IC50

What value of measured IC50 is listed for COc1cc2nccc(Oc3ccc(NC(=O)C4(C(=O)Nc5ccc(F)cc5)CC4)cc3)c2cc1OC [cabozantinib] ?
> 3 µM

====

- target: DDR2 (Homo sapiens)
- Sequence (Q16832 22-855): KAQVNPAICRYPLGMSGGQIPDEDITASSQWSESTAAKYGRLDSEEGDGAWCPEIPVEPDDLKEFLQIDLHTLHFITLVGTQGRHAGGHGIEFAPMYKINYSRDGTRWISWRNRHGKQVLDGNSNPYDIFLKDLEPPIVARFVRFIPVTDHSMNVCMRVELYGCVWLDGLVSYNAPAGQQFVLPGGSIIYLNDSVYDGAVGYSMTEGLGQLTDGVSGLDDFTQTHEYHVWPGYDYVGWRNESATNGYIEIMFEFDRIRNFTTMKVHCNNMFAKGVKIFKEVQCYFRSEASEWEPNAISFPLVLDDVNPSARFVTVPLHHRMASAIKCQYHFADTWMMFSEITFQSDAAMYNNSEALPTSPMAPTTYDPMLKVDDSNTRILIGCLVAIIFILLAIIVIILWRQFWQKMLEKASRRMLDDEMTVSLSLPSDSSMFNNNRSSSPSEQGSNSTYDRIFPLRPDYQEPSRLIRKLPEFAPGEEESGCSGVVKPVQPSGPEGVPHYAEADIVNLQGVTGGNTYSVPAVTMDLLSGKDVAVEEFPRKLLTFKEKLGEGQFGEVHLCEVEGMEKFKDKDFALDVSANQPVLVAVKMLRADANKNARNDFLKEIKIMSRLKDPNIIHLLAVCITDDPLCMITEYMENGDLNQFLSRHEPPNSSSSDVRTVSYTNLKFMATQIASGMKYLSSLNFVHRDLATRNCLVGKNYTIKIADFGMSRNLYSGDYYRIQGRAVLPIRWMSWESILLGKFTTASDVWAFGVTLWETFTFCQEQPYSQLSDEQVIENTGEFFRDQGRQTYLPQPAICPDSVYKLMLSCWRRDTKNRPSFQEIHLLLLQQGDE
reported metric: IC50

Return reported IC50; argument: COc1cc2nccc(Oc3ccc(NC(=O)C4(C(=O)Nc5ccc(F)cc5)CC4)cc3)c2cc1OC [cabozantinib]
< 150 nM

Numbers sourced from paper PMC8297783.
